Listing of recorded binding signal (flow cytometry, %) by entry.
Target: T1, protein A56 of the oncolytic virus OTS-412 (vaccinia virus (OTS-412), UniProt P08714 17-315)
T1 construct: also called OTS-412-A56; protein A56 variant
T1 chain: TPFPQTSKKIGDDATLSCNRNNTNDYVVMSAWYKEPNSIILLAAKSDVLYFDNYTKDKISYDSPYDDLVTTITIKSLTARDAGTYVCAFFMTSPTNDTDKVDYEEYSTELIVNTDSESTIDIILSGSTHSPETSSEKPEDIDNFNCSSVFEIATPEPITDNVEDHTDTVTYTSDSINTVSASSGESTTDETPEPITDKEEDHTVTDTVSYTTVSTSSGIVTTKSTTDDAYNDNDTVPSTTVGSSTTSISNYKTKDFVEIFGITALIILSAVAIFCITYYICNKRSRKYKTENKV
Experiment: flow cytometry, A549 cells treated with OTS-412

>  <Binder>
A56-35G07 (Ab51) (antibody, V domains shown) VH: QMQLVQSGAEVRKPGSSVKVSCKASGDTFSSYAVSWVRQAPGLGLEWMGRTIPRLGATSYAQNFQGRVSITADKSTNTVYMELSGLRSEDTAVYYCARYIPLVRGVRQPRDDFEIWGPGTMITVSS VL: DIQMTQSPGTLSLSPGERATLSCRASQSVSSSYLAWYQQKPGQAPRLLIYGASSRATGIPDRFSGSGSGTDFTLTISSLEPEDFAVYYCQHRKSWPPGATFGQGTRLEIK

>  <binding signal (flow cytometry, %)>
≥ 90%

$$$$
>  <Binder>
A56-02C07 (Ab19) (antibody, V domains shown) VH: QVQLVESGAEVRRPGSSVKVSCKTSGVTFSGYVLSWVRQAPGHGLEWMGRIIPLIDVENYAREFQGRMKITADKSTNTVYMELNNLRSEDTAVYYCAKSVVRGLDYYYYGFDVWGQGTTVTVSS VL: SYELTQPPSLSVAPGKTARITCGGNNIGSKSVHWYQQKPGQAPRLVTYYDGNRPSGIPERFSGSNSGNTATLIISRVEAGDEADYYCQVWDSSSDQGVFGTGTKVTVL

>  <binding signal (flow cytometry, %)>
≥ 90%

$$$$

Give binding signal (flow cytometry, %) for A56-01A04 (Ab03) (antibody, V domains shown) VH: QVQLVESGAEVKKPGSSVKVSCKASGGTFSYRYLHWVRQASGQALEWMGWITPFNGYTNYAQKFQDRVTITRDRSMSTAYMELSSLRSEDTAVYYCVTGLGKTNLDSWGQGTLVTVSS VL: DIVMTQTPLSSPVTLGQPASISCRSSQSLVHSNGNTYLSWLQQRPGQPPRLLIYQISKRFSGVPDRFSGSGAGTDFTLKISRVEAEDVGVYYCMQLTQFPLTFGGGTKVEIK ≥ 90%
